- Subject Of Test: RSV prefusion F (preF, DS-Cav1) (Respiratory syncytial virus)
- Run Description: BLI, IgG on sensor, 100 nM antigen
Measured Attribute: Kd (nM)
# unit: nM | format: bare number

Example binders with recorded Kd:
ADI-41322 (antibody, V domains shown) VH: QVQLVQSGAEVKKPGSSVRVSCKASGGSFSSYATSWVRQAPGQGLEWMGGIIPMYDAVNYAQKFQGRVTITADESTTTAYMELSSLRSEDTAVYYCARSSGYTGTNFFDYWGQGTLVTVSS VL: DIQMTQSPSSVSASVGDRVTITCRASQDISSWLAWYQQKPGKAPKLLIYTASSLQSGVPSRFSGSGSGTDFTLTISRLQPEDFATYYCQQANSFPRVTFGGGTKVEIK: 2.98
ADI-41250 (antibody, V domains shown) VH: QVQLQQWGAGLLKPSETLSLTCAVSGESLTGYFWSWIRQPPGKGLEWIGEVSHSGSTNYNPSLKSRVTMSVDTSKTQFSLKLNSVTAADTAVYYCARGYDYWSGTARYFDYWGQGILVTVSS VL: QPVLTQPASVSGSPGQSITISCTGTSSDVGGYNYVSWYQQHPGKAPKLMIYDVSNRPSGVSSRFSGSKSGNTASLTISGLQAEDEGDYYCSSYRSSTTSRVFGGGTKVTVL: 0.731

Here is another binder to look at.
Ask: Entry ADI-41311 (antibody, V domains shown) VH: QVTLKQSGPALVKPTQTLTLTCTFSGFSLSTKRMGVSWIRQPPGKALEWLARIDWDDDKYYSTSLRTRLTISKDTSKNQVVLTMTDMDPVDTATYYCARIQPYTSGGYYSYYFDYWGQGTLVTVSS VL: DIQVTQSPSSLSASIGDRVTITCRASQTIASYLNWYQQKPGKAPKLLIYIASSLQSGVPSRFSGSGSGTDFTLTISTLQPEDFATYYCQQSYGTPWTFGQGTKVEIK has what Kd?
Result: 0.754
